- assayed.system: T1, SARS-CoV-2 S2 (aa686-1208) (Wuhan) (SARS-CoV-2 Wuhan, UniProt P0DTC2 686-1208)
- T1 construct: NRC; FLAG, 6xHis tags
- procedure.text: SPR, antigen on chip
property.name: koff (s⁻¹)
Reply numerically in s⁻¹, unit not repeated.

koff for NRCoV2-S2G4 VHH (VHH) VHH: QVQLVQSGGGLVQAGGSLTLSCAPSGSTFSGYATNWYRQAPGKQRELVATISSDGDKNYADSVKGRFTISRDNAKNTVYLQMNSLKPEDTAVYYCNKHWWTGDWWGQGTQVTVSS ?
0.000382

Also NRCoV2-S2G3 VHH (VHH) VHH: QVQLVQSGGGSVQAGGSLRLSCAASGSTFGIFLMGWRRQAPGKQRELVAHITSGGATNYADSVKGRFTISRDNAKNTVYLQMNSLEPEDTAVYYCYTTKRDDASVYWGQGTQVTVSS , if possible.
0.000627

Also NRCoV2-S2F3 VHH (VHH) VHH: EVQLVQSGGGLVQAGGSLRLSCATSVRILSVPAMGWYRQAPGKEREMVAVITSGGSTNYADSVKGRFTISRDNAKNTVYLQMNSLKLEDTAVYQCNLRDILSQPFWGQGTQVTVSS , if possible.
0.000629

Also NRCoV2-S2A4 VHH (VHH) VHH: QVQLVQSGGGLVQAGGSLRLSCAVSGSPFRSNVMEWYRQAPGKQRELVASISTGGSRTYTDSVKGRFTISRDNAKNEAFLQMNSLKPEDTAVYYCHAAARDSHGIYLLDTWGQGTQVTVSS , if possible.
0.000414
